Data provenance is PubChem BioAssay AID602408.

test system: E. coli UTI89 K1 capsule, phage lysis, A600; assay: blocking phage-mediated lysis of K1 E. coli – UTI89 strain, A600 absorbance, round 2, bacterial capsule biogenesis project, confirmation (AID 602408)
Task for the reader: assign each of the following molecules its reported IC50.

Challenge: Entry `O=C(Nc1cc(-c2ccc(OCCCC(F)(F)F)cc2)sc1C(=O)O)c1cc(Br)c(Br)o1` : reported IC50 = ?
Response given: 32.2 µM

Challenge: Entry `CCOc1ccc(-c2cc(NC(=O)c3c(F)cc(F)cc3F)c(C(=O)O)s2)cc1` : reported IC50 = ?
Response given: 20 µM

Challenge: Entry `CCOc1ccc2nc(NC(=O)c3ccc(Br)s3)sc2c1` : reported IC50 = ?
Response given: 5.06 µM

Challenge: Entry `CCCOc1ccc(-c2cc(NC(=O)c3c(F)cc(F)cc3F)c(C(=O)O)s2)cc1` : reported IC50 = ?
Response given: 8.06 µM

Challenge: Entry `O=C(O)c1sc(-c2ccc(OCCCC(F)(F)F)cc2)cc1NC(=O)c1c(F)cc(F)cc1F` : reported IC50 = ?
Response given: 5.53 µM

Challenge: Entry `O=C(Nc1ccnc(Br)c1)c1ccc2ncsc2c1` : reported IC50 = ?
Response given: 4.26 µM

Challenge: Entry `O=C(Nc1cc(-c2ccc(OCCC(F)(F)F)cc2)sc1C(=O)O)c1ccc(Br)o1` : reported IC50 = ?
Response given: 0.84 µM

Challenge: Entry `CC(C)c1ccc(-c2cc(NC(=O)c3ccc(Br)o3)c(C(=O)O)s2)cc1` : reported IC50 = ?
Response given: 2.81 µM

Challenge: Entry `O=C(Nc1ccncc1F)c1ccc2ncsc2c1` : reported IC50 = ?
Response given: 18.6 µM

Challenge: Entry `O=C(Nc1ccnc(F)c1)c1ccc2ncsc2c1` : reported IC50 = ?
Response given: 4.62 µM

Challenge: Entry `O=C(Nc1cc(-c2ccc(OCC(F)(F)F)cc2)sc1C(=O)O)c1ccc(Br)o1` : reported IC50 = ?
Response given: 4.9 µM

Challenge: Entry `CCOc1ccc(-c2cc(NC(=O)c3c(F)cccc3C(F)(F)F)c(C(=O)O)s2)cc1` : reported IC50 = ?
Response given: 52.6 µM

Challenge: Entry `CCCCOc1ccc(-c2cc(NC(=O)c3cc(Br)c(Br)o3)c(C(=O)O)s2)cc1` : reported IC50 = ?
Response given: 23.3 µM

Challenge: Entry CC1(C(=O)O)CCC(C(=O)Nc2ccc3ccccc3c2)C1(C)C (configuration not stated) : reported IC50 = ?
Response given: 43.9 µM

Challenge: Entry `CC(C)c1ccc(-c2cc(NC(=O)c3cccc(F)c3)c(C(=O)O)s2)cc1` : reported IC50 = ?
Response given: 18.4 µM

Challenge: Entry `CCOc1ccc(-c2cc(NC(=O)c3cccc(Cl)c3)c(C(=O)O)s2)cc1` : reported IC50 = ?
Response given: 64.9 µM

Challenge: Entry `O=C(Nc1cc(-c2ccccc2)sc1C(=O)O)c1cccc(Cl)c1` : reported IC50 = ?
Response given: 85.5 µM

Challenge: Entry `COc1ccc2nc(NC(=O)c3ccc(Br)s3)sc2c1` : reported IC50 = ?
Response given: 2.33 µM

Challenge: Entry `O=C(Nc1ccncc1)c1ccc2ncsc2c1` : reported IC50 = ?
Response given: 1.05 µM

Challenge: Entry `O=C(O)c1sc(-c2ccc(OCCC(F)(F)F)cc2)cc1NC(=O)c1c(F)cc(F)cc1F` : reported IC50 = ?
Response given: 3.11 µM

Challenge: Entry `CCCCOc1ccc(-c2cc(NC(=O)c3c(F)cc(F)cc3F)c(C(=O)O)s2)cc1` : reported IC50 = ?
Response given: 6.39 µM

Challenge: Entry `Cc1ccc(-c2cc(NC(=O)c3c(F)cccc3F)c(C(=O)O)s2)cc1` : reported IC50 = ?
Response given: 21.3 µM

Challenge: Entry `O=C(Nc1cc(-c2ccc(C(F)(F)F)cc2)sc1C(=O)O)c1ccc(Br)o1` : reported IC50 = ?
Response given: 9.74 µM

Challenge: Entry `CCCCOc1ccc(-c2cc(NC(=O)c3c(F)cccc3F)c(C(=O)O)s2)cc1` : reported IC50 = ?
Response given: < 0.78 µM

Challenge: Entry `O=C(O)c1sc(-c2ccc(OCC(F)(F)F)cc2)cc1NC(=O)c1c(F)cccc1F` : reported IC50 = ?
Response given: 2.86 µM

Challenge: Entry `CCCc1ccc(-c2cc(NC(=O)c3c(F)cccc3F)c(C(=O)O)s2)cc1` : reported IC50 = ?
Response given: 2.63 µM

Challenge: Entry `COc1ccc(-c2cc(NC(=O)c3ccc(Br)o3)c(C(=O)O)s2)cc1` : reported IC50 = ?
Response given: 8.75 µM

Challenge: Entry `CCCc1ccc(-c2cc(NC(=O)c3cc(Br)c(Br)o3)c(C(=O)O)s2)cc1` : reported IC50 = ?
Response given: 6.78 µM

Challenge: Entry `CCOc1ccc(-c2cc(NC(=O)c3ccc(Br)s3)c(C(=O)O)s2)cc1` : reported IC50 = ?
Response given: 13.9 µM

Challenge: Entry `O=C(ONc1ccc(N=NC(=O)c2ccccc2O)cc1)c1ccccc1` : reported IC50 = ?
Response given: 2.01 µM

Challenge: Entry `CCCCOc1ccc(-c2cc(NC(=O)c3ccc(Br)o3)c(C(=O)O)s2)cc1` : reported IC50 = ?
Response given: 0.85 µM

Challenge: Entry `Cc1ccc(-c2cc(NC(=O)c3ccc(Br)o3)c(C(=O)O)s2)cc1` : reported IC50 = ?
Response given: 11.3 µM

Challenge: Entry `CC1=NN2C(=N)/C(=C\c3ccc(SCc4ccco4)o3)C(=O)N=C2S1` : reported IC50 = ?
Response given: 37.9 µM

Challenge: Entry `CC(C)c1ccc(-c2cc(NC(=O)c3cc4ccccc4o3)c(C(=O)O)s2)cc1` : reported IC50 = ?
Response given: 23.6 µM

Challenge: Entry `O=C(Nc1cc(-c2ccccc2)sc1C(=O)O)c1cccs1` : reported IC50 = ?
Response given: 68.1 µM

Challenge: Entry `CCCc1ccc(-c2cc(NC(=O)c3c(F)cc(F)cc3F)c(C(=O)O)s2)cc1` : reported IC50 = ?
Response given: 15.9 µM

Challenge: Entry `Cc1ccc(-c2cc(NC(=O)c3cccc(F)c3)c(C(=O)O)s2)cc1` : reported IC50 = ?
Response given: 44.5 µM

Challenge: Entry `COc1cc(NC(=O)c2ccc3ncsc3c2)ccn1` : reported IC50 = ?
Response given: 7.75 µM

Challenge: Entry `O=C(O)c1sc(-c2ccc(OCCCC(F)(F)F)cc2)cc1NC(=O)c1c(F)cccc1F` : reported IC50 = ?
Response given: 10.3 µM

Challenge: Entry `CC(C)(C)c1ccc(-c2cc(NC(=O)c3cccc(F)c3)c(C(=O)O)s2)cc1` : reported IC50 = ?
Response given: 9.72 µM

Challenge: Entry `O=C(NCc1cc([N+](=O)[O-])ccc1O)c1cccnc1Sc1ccccc1Cl` : reported IC50 = ?
Response given: 14.8 µM

Challenge: Entry `O=C(Nc1cc(-c2ccc(OC(F)(F)F)cc2)sc1C(=O)O)c1ccc(Br)o1` : reported IC50 = ?
Response given: 4.6 µM

====

system: E. coli UTI89 K1 capsule, phage lysis, A600; experiment: blocking phage-mediated lysis of K1 E. coli – UTI89 strain, A600 absorbance, round 2, bacterial capsule biogenesis project, confirmation (AID 602408)
property: pIC50
Scale: negative log10 of molar concentration, which is what pIC50 denotes.

Challenge: Entry `CCOc1ccc(-c2cc(NC(=O)c3ccc(Br)o3)c(C(=O)O)s2)cc1` : reported pIC50 = ?
Response given: 5.31

Challenge: Entry `O=C(Nc1cc(-c2ccc(OCCCC(F)(F)F)cc2)sc1C(=O)O)c1ccc(Br)o1` : reported pIC50 = ?
Response given: 5.75

Challenge: Entry `O=C(O)c1sc(-c2ccc(OC(F)(F)F)cc2)cc1NC(=O)c1c(F)cccc1F` : reported pIC50 = ?
Response given: 5.01

Challenge: Entry `O=C(Nc1ccnc(Cl)c1)c1ccc2ncsc2c1` : reported pIC50 = ?
Response given: 5.59

Challenge: Entry `CC(C)(C)c1ccc(-c2cc(NC(=O)c3c(F)cccc3F)c(C(=O)O)s2)cc1` : reported pIC50 = ?
Response given: 5.16

====

experiment: blocking phage-mediated lysis of K1 E. coli – UTI89 strain, A600 absorbance, round 2, bacterial capsule biogenesis project, confirmation (AID 602408); conditions: E. coli UTI89 K1 capsule, phage lysis, A600; at 100 µM (top of the series)
Task for the reader: assign each of the following compounds its reported inhibition of phage lysis.
Return type: number; implicit unit %.

Challenge: Entry `O=C(NCCc1ccncc1)c1ccc2ncsc2c1` : reported inhibition of phage lysis = ?
Response given: 8.25

Challenge: Entry `O=C(NC1CCNCC1)c1ccc2ncsc2c1` : reported inhibition of phage lysis = ?
Response given: -6.19

Challenge: Entry `COc1ccc2nc(NC(=O)c3ccco3)sc2c1` : reported inhibition of phage lysis = ?
Response given: 0.81

Challenge: Entry `COc1cc2sc(NC(=O)c3ccc(Br)s3)nc2cc1F` : reported inhibition of phage lysis = ?
Response given: -6.05

Challenge: Entry `O=C(Nc1cc(-c2ccc(OCCCC(F)(F)F)cc2)sc1C(=O)O)c1cc(Br)c(Br)o1` : reported inhibition of phage lysis = ?
Response given: 12.2

Challenge: Entry `O=C(Nc1ncccc1O)c1ccc2ncsc2c1` : reported inhibition of phage lysis = ?
Response given: 0.85

Challenge: Entry `O=C(Nc1ccncc1)c1ccc2ncsc2c1` : reported inhibition of phage lysis = ?
Response given: 17.9

Challenge: Entry `O=C(NCc1ccncc1)c1ccc2ncsc2c1` : reported inhibition of phage lysis = ?
Response given: -2.06

Challenge: Entry `COc1ccc2nc(NC(=O)c3cccs3)sc2c1` : reported inhibition of phage lysis = ?
Response given: 24
